The measured values listed here are drawn from patent US20060004428A1.

Below: a set of entries, each annotated with reported melting point.

The molecule identified as O=C1NC(=O)c2c1c1c3cc(Cl)ccc3[nH]c1c1cccn21 registered its melting point at 298 to 304 °C

melting point recorded for this molecule, O=C1NC(=O)c2c1c1c3cc(OCc4ccccc4)ccc3[nH]c1c1cccn21 , is 275 °C

The value of melting point measured for the molecule CN1C(=O)c2c(n3cncc3c3[nH]c4ncccc4c23)C1=O turned out to be 304 to 307 °C

Next:
Kindly note the recorded melting point for O=C1NC(=O)c2c1c1c3cc(Br)ccc3[nH]c1c1cccn21 , which is > 300 °C

response.value for CC(=O)OC[C@H]1O[C@@H](n2c3ncccc3c3c4c(n5cncc5c32)C(=O)N(C)C4=O)[C@H](OC(C)=O)[C@@H](OC(C)=O)[C@@H]1OC(C)=O (field: melting point) = 204 °C

Entry under test: CN1C(=O)C2c3c([nH]c4ncccc34)-c3nccn3C2C1=O (stereo not drawn) . Its melting point was 222 to 224 °C

Reported melting point for CN1C(=O)c2c(n3cccc3c3[nH]c4ccc(Br)cc4c23)C1=O was > 300 °C

Memo: CN1C(=O)c2c(n3cccc3c3[nH]c4ccccc4c23)C1=O , reported melting point: 226 to 228 °C

Sample O=C1NC(=O)c2c1c1c3ccccc3[nH]c1c1cccn21 ; melting point observed: 218 to 220 °C
